// data source = patent US20110150888A1

Provide the reported EC50 of each item.
Target: T1, human hepcidin (mature, 25 amino acids) (human, mono-biotinylated in the ELISAs and on the KinExA beads (site not stated); unlabelled in solution and on the BIAcore chip)
T1 construct: the form is named in each assay field; also called rhuHepc; rhHepc
T1 peptide: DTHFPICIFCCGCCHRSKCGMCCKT
Test: ELISA, mono-biotinylated human hepcidin on Neutravidin plate, pH 5.5
Method: Differential pH binding of the antibodies listed above in Table 3 was then determined by ELISA. 50 μL of Neutravidin (Pierce) at 8 μg/mL in 1×PBS was coated upon a Nunc Maxisorp 384-well plate, and incubated at 37° C. for 1 hr. […] The absorption was measured at 450 nm on a plate reader. Binding data were analyzed by non-linear regression analysis (sigmoidal dose-response, variable slope) to generate EC₅₀ values using GraphPad Prism® software. […]
Answers are plain numbers, in µg/mL.

Example cases with answers are listed next.
15E1 A99H A107H (antibody, V domains shown, Double histidine mutant of 15E1; constant regions as in wild-type 15E1; also called A107H (heavy chain)/A99H (heavy chain)) VH: QVQLVESGGGVVQPGRSLRLSCAASGFTFSSYGMHWVRQAPGKGLEWVAVIWYAESNKYYADSVKGRFTISRDNSKNTLYLQMNSLRAEDTAVYYCARHQEGIAPDHFDIWGQGTMVTVSS VL: SYELTQPPSVSVSPGQTATITCSGDKLGERYACWYQQRPGQSPVLVIYQDSKRPSGIPERFSGSNSGNTATLTISGTQAMDEADYFCQAWYSSTNVLFGGGTKLTVL : 0.0161
15E1 A99H (antibody, V domains shown, Histidine mutant of 15E1, transiently expressed in 293-6E cells; constant regions as in wild-type 15E1; also called A99H (heavy chain)) VH: QVQLVESGGGVVQPGRSLRLSCAASGFTFSSYGMHWVRQAPGKGLEWVAVIWYAESNKYYADSVKGRFTISRDNSKNTLYLQMNSLRAEDTAVYYCARHQEGIAPDAFDIWGQGTMVTVSS VL: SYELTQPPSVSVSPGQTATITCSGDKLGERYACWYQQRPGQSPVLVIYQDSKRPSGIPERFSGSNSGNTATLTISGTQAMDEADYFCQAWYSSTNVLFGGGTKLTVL : 0.0291

--- query ---
Need EC50, item 15E1 A107H L27H (antibody, V domains shown, Double histidine mutant of 15E1 (one change in each chain); constant regions as in wild-type 15E1; also called A107H (heavy chain)/L27H (light chain)) VH: QVQLVESGGGVVQPGRSLRLSCAASGFTFSSYGMHWVRQAPGKGLEWVAVIWYAESNKYYADSVKGRFTISRDNSKNTLYLQMNSLRAEDTAVYYCARAQEGIAPDHFDIWGQGTMVTVSS VL: SYELTQPPSVSVSPGQTATITCSGDKHGERYACWYQQRPGQSPVLVIYQDSKRPSGIPERFSGSNSGNTATLTISGTQAMDEADYFCQAWYSSTNVLFGGGTKLTVL 0.316
